- target system: Cytochrome P450 4Z1 (Homo sapiens, UniProt Q86W10)
- Sequence (Q86W10 whole entry): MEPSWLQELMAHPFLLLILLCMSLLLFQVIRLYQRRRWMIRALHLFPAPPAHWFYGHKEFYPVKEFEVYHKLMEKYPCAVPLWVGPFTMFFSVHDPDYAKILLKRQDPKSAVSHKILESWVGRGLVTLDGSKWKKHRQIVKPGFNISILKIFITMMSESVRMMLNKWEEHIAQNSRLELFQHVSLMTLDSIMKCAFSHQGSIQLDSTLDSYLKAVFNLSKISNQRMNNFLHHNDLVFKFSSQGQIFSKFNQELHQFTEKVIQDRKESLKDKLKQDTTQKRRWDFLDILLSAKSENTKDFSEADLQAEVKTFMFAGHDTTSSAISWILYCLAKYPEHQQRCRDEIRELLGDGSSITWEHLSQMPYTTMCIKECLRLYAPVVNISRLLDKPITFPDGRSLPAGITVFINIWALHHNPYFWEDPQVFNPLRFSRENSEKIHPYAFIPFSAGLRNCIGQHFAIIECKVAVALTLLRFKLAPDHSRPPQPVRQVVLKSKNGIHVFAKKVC
- run description: Inhibition of CYP4Z1 in human HEK293T cells using Luciferin-BE as substrate at 1 uM incubated for 30 mins in presence of NADPH by luminescence based assay relative to control
- Assay type: ADME, cell-based
- conditions used: HEK-293T, 0.5 h
test readout: inhibition at 1 µM (%)

| smiles entry | test readout | reported |
| --- | --- | --- |
| CCc1ccc(N/C=N/O)cc1 | inhibition at 1 µM | 33.6 |
| CCOC(=O)Cc1ccc(N/C=N/O)cc1 | inhibition at 1 µM | 80.4 |
| O=C(O)Cc1ccc(N/C=N/O)cc1 | inhibition at 1 µM | 36.5 |
| CCCCc1ccc(N/C=N/O)cc1 | inhibition at 1 µM | 54.2 |

====

- target system: Cytochrome P450 4Z1 (Homo sapiens)
- run description: Inhibition of CYP4Z1 in human HEK293T cells using Luciferin-BE as substrate incubated for 30 mins in presence of NADPH by luminescence based assay
pIC50: −log10 of the molar value.

| smiles entry | target system | pIC50 |
| --- | --- | --- |
| CCOC(=O)Cc1ccc(N/C=N/O)cc1 | Cytochrome P450 4Z1 (Homo sapiens) | 7.05 |

====

- target system: Cytochrome P450 2D6 (Homo sapiens)
- Sequence (P10635 whole entry): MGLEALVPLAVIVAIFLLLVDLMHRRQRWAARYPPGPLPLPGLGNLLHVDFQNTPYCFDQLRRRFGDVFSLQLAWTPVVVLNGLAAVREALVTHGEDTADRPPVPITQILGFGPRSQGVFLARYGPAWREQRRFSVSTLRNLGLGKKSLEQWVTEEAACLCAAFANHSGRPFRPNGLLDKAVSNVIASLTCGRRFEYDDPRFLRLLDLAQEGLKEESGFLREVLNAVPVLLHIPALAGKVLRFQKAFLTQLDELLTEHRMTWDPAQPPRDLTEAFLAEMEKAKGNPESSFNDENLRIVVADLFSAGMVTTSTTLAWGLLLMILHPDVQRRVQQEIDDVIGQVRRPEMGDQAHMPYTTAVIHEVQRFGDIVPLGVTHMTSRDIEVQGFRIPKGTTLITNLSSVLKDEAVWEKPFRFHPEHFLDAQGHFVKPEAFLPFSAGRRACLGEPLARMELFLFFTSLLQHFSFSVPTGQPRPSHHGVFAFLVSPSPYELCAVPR
- run description: Inhibition of human recombinant CYP2D6 using Luciferin-ME EGE as substrate incubated for 30 mins in presence of NADPH by luminescence based assay
pIC50: −log10 of the molar value.

| smiles entry | pIC50 |
| --- | --- |
| CCOC(=O)CCCc1ccc(N/C=N/O)cc1 | < 5.00 |

====

- target system: Cytochrome P450 4Z1 (Homo sapiens)
- run description: Inhibition of CYP4Z1 in human HEK293T cells using Luciferin-BE as substrate at 10 uM incubated for 30 mins in presence of NADPH by luminescence based assay relative to control
- Assay type: ADME, cell-based
- conditions used: HEK-293T, 0.5 h
Measured inhibition at 10 µM values are reported for all entries that follow.

| smiles entry | inhibition at 10 µM [%] |
| --- | --- |
| O=C(O)Cc1ccc(N/C=N/O)cc1 | 54.3 |
| CCOC(=O)Cc1ccc(N/C=N/O)cc1 | 89.1 |
| CCc1ccc(N/C=N/O)cc1 | 72.8 |
| CCCCc1ccc(N/C=N/O)cc1 | 84.3 |

====

- target system: Cytochrome P450 3A4 (Homo sapiens)
- Sequence (P08684 whole entry): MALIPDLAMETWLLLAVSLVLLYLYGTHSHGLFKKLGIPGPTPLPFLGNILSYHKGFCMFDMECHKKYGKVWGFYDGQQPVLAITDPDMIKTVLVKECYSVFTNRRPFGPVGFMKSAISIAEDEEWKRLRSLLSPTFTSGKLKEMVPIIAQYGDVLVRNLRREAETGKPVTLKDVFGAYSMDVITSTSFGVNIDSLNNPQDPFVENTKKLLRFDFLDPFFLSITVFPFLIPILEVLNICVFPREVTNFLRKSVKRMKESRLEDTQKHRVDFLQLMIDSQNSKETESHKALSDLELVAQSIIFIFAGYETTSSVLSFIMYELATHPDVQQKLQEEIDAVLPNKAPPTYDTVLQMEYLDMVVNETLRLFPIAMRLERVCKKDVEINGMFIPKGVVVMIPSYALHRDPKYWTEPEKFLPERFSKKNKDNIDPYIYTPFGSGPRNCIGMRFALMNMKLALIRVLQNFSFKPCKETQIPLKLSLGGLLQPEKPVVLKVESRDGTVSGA
- run description: Inhibition of human recombinant CYP3A4 using Luciferin-IPA as substrate incubated for 30 mins in presence of NADPH by luminescence based assay
- Type: ADME

| smiles entry | target system | IC50 |
| --- | --- | --- |
| CCOC(=O)CCCc1ccc(N/C=N/O)cc1 | Cytochrome P450 3A4 (Homo sapiens) | > 10 µM |

====

- run description: Stability in mouse plasma assessed as half life at 40 uM incubated upto 5 hrs by LC-MS/MS analysis
- Assay type: ADME, cell-free
test readout: half-life at 40 µM (min)

| smiles entry | unit of measurement | reported |
| --- | --- | --- |
| CCOC(=O)CCCc1ccc(N/C=N/O)cc1 | min | 24.6 |

====

- System: MDA-MB-231
- run description: Antiproliferative activity against human MDA-MB-231 cells assessed as cell growth inhibition incubated for 72 hrs by MTT assay
- Format: functional, cell-based
- conditions used: MDA-MB-231, 72 h

| smiles entry | target system | IC50, nM |
| --- | --- | --- |
| CCOC(=O)CCCc1ccc(N/C=N/O)cc1 | MDA-MB-231 | 483 |
